Origin of values: PubChem BioAssay (NCI)

system: COLO 205 colon; experiment: NCI tumour cell line growth inhibition, 48 h; in the data active means GI50 below about 0.43 µM; inactive means the rest
Respond only with the outcome that fits, drawn from yes (1) (active), no (0) (inactive)

Please review the following examples before continuing.
compound_smiles=COc1cccc(/C=C2\COc3ccc(O)c(O)c3C2=O)c1 category="no (0)"
compound_smiles=S=c1ssnc1-c1ccccn1 category="no (0)"
compound_smiles=O=S(=O)(Nc1ccc(Cl)c(F)c1)c1ccc(-c2cnc(C3CC3)o2)cc1 category="no (0)"
compound_smiles=ClC(Cl)c1nc(-c2ccccc2)n2nc(-c3ccccc3)cc2n1 category="no (0)"
compound_smiles=O=C(/C=C\Sc1ccccn1)c1cccc(Br)c1 category="no (0)"

For Nc1ccccc1NC(=O)c1ccc(CNC(=O)OCc2cccnc2)cc1 , what call appears in the results of this test? no (0)

For Nc1nc(/C=C\c2ccc([N+](=O)[O-])s2)nc(N2CCOCC2)n1 , what call appears in the results of this test? no (0)

For COc1ccc2c(c1)c1c(C)c3cnccc3c(C)c1n2CCCN , what call appears in the results of this test? yes (1)

For N#C/C(=C1C=C/C(=N/O)C(Cl)=C/1)c1ccc(Cl)cc1 , what call appears in the results of this test? no (0)

For Cc1ccc2cc3c(cc(C)c4ccccc43)c3c2c1CC3 , what call appears in the results of this test? no (0)

For COc1ccc(-c2nc3c(-c4ccccc4)nc(-c4ccccc4)cn3c2-c2ccc(OC)cc2)cc1 , what call appears in the results of this test? no (0)
